Origin of the recorded values: patent US10874687B1

# System: HCoV-229E
# EXPERIMENT SUMMARY: Protection of BHK-21 cells from virus-induced cytopathogenicity (MTT)
# Format: cell-based, human coronavirus
# ASSAY CONDITIONS: Human coronavirus 229E, BHK-21, HCoV-229E in BHK-21; dye staining; average of 2 experiments; Table 5; read-out: EC50
pEC50: −log10 of the molar value.

COMPOUND | CENSORING OPERATOR | pEC50
CNc1nc(N)nc2c1ncn2[C@@H]1O[C@H](CO[P@@](=O)(N[C@@H](C)C(=O)OC(C)C)Oc2ccccc2)[C@@H](O)[C@@]1(C)F | = | 5.74
CC(C)OC(=O)[C@H](C)N[P@](=O)(OC[C@H]1O[C@@H](n2ccc(=O)[nH]c2=O)[C@](C)(F)[C@@H]1O)Oc1ccccc1 [sofosbuvir, reference compound] | < | 4.00
